Tgt: hMAO-B (Homo sapiens)
Sequence (P27338 1-520): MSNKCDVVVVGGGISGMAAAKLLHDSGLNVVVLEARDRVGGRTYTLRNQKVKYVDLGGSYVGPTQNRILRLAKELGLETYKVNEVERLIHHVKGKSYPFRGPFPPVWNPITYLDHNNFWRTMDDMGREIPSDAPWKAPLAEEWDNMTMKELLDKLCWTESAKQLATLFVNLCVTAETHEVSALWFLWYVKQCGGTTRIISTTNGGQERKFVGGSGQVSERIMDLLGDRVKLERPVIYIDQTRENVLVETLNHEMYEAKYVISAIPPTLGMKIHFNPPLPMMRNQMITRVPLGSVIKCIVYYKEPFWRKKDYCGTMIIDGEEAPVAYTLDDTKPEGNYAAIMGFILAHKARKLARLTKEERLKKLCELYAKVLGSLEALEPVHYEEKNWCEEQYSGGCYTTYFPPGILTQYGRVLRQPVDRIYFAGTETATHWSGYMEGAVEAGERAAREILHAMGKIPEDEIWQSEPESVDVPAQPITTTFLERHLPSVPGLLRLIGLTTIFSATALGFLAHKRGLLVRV
Protocol Text: Inhibition of human recombinant MAO B (Amplex Red assay)
Run Conditions: read-out: MAO-B (IC50); Table 4, single enantiomers; mean ± SEM from five experiments
For each record, write down the corresponding pIC50.
Recall that pIC50 is obtained by taking minus log10 of the concentration measured in molar.

Data request, read-out pIC50, for Cc1ccc(C2=NO[C@@H](c3ccc(C)cc3)C2)cc1 [R-(−) EMAC II j] 8.59

Data request, read-out pIC50, for COc1ccc([C@@H]2CC(c3ccc(C)cc3)=NO2)cc1 [S-(+) EMAC II m] 6.53

Data request, read-out pIC50, for COc1ccc([C@H]2CC(c3ccc(C)cc3)=NO2)cc1 [R-(−) EMAC II m] 6.90

Data request, read-out pIC50, for Cc1ccc(C2=NO[C@@H](c3ccc(F)cc3)C2)cc1 [R-(−) EMAC II k] 6.52
